// data source = patent US20250154169A1

Overview of reported AC50 across a group of molecules:
System: MYB mRNA
experiment_notes: Splicing RT-qPCR assay, MYB canonical (CJ) and alternative (AJ) junction mRNA
Format: cell-based, human
conditions: Homo sapiens, 24 h, A673 or K562 cells, 24 hours compound treatment, RT-qPCR; read-out: MYB AJ (AC50, increase in alternative junction mRNA)

Solved entries (count: 5):
# molecule, AC50
data = [
    ("CCn1cc2c(N3CCN[C@@H](C(C)C)C3)ccc(C(=O)Nc3cc(F)c4nc(C)cn4c3)c2n1", "100 to 1000 nM"),
    ("Cc1cn2cc(NC(=O)c3ccc(N4CCNCC4)c4cn(Cc5cncnc5)nc34)cc(F)c2n1", "100 to 1000 nM"),
    ("Cc1cn2cc(NC(=O)c3ccc(N4CCc5[nH]ccc5C4)c4cn(C)nc34)cc(F)c2n1", "> 10000 nM"),
    ("CCn1cc2c(N3C[C@@H](C4CC4)N[C@@H](C)C3)ccc(C(=O)Nc3cc(F)c4nc(C)cn4c3)c2n1", "1000 to 10000 nM"),
    ("CN[C@@H]1CCN(c2ccc(C(=O)Nc3cn4cc(C)nc4c(N(C)C)n3)c3nn(C)cc23)C1", "> 10000 nM"),
]

**Q:** // lookup AC50 for CCn1cc2c(N3CCC(NC4CC4)C3)ccc(C(=O)Nc3cc(F)c4nc(C)cn4c3)c2n1 (stereo not drawn)
**A:** 100 to 1000 nM

**Q:** // lookup AC50 for Cc1cn2cc(NC(=O)c3ccc(N4CCC(N(C)C)C4)c4cc(C)oc34)cc(F)c2n1 (stereo not drawn)
**A:** < 100 nM

**Q:** // lookup AC50 for Cn1cc2c(F)cc(NC(=O)c3ccc(N4CCNCC4)c4cn(C)nc34)cc2n1
**A:** > 10000 nM

---

Overview of reported AC50 across a group of compounds:
Test system: MYB mRNA
experiment_notes: Splicing RT-qPCR assay, MYB canonical (CJ) and alternative (AJ) junction mRNA
Type: cell-based, human
conditions: Homo sapiens, 24 h, A673 or K562 cells, 24 hours compound treatment, RT-qPCR; read-out: MYB AJ (AC50, increase in alternative junction mRNA)

Solved entries (count: 3):
# compound, AC50
data = [
    ("CCNC1CCN(c2ccc(C(=O)Nc3cc(F)c4nc(C)cn4c3)c3nn(CC)cc23)C1 (centres unmarked) [Compound 396]", "< 100 nM"),
    ("CC1=CC2=NC(C)=NC2C=C1NC(=O)c1ccc(N2CCNCC2)c2cn(C)nc12 (centres unmarked) [Compound 237]", "< 100 nM"),
    ("Cc1nc2c(C)cc(NC(=O)c3ccc(N4CCNCC4)c4cn(C)nc34)nc2o1 [Compound 511]", "100 to 1000 nM"),
]

**Q:** // lookup AC50 for Cc1cn2cc(NC(=O)c3ccc(N4CC(C)(C)NC(C)(C)C4)c4cc(C)oc34)cc(F)c2n1 [Compound 195]
**A:** 1000 to 10000 nM

**Q:** // lookup AC50 for Cc1cn2cc(NC(=O)c3ccc(N4C[C@@H](C)N[C@@H](C)C4)c4cn(C)nc34)cc(F)c2n1 [Compound 326]
**A:** < 100 nM

**Q:** // lookup AC50 for Cc1cn2cc(NC(=O)c3ccc(N4CCNCC4)c4cc(C)oc34)c(C)cc2n1 [Compound 262]
**A:** 100 to 1000 nM

**Q:** // lookup AC50 for CCn1cc2c(N3C[C@H](F)[C@H](NC)C3)ccc(C(=O)Nc3cc(F)c4nc(C)cn4c3)c2n1 [Compound 585]
**A:** 100 to 1000 nM

**Q:** // lookup AC50 for CCn1cc2c(N3CCNC(CO)C3)ccc(C(=O)Nc3cc(F)c4nc(C)cn4c3)c2n1 (centres unmarked) [Compound 403]
**A:** 100 to 1000 nM
